From: patent US9714234B2

Test system: CD69 expression on B cells in human whole blood
Assay Overview: Whole Blood Assays of BCR-Stimulated CD69 Expression on B Cells
Format: cell-based
Condition Info: B-cell, anti-human IgM + IL-4 stimulation, 18 h at 37° C.
pIC50: −log10 of the molar value.
Reported Endpoint: pIC50

1) COc1ccc2cc(=O)n(-c3cccc(-c4ccc(C(N)=O)c5[nH]c6cc(C(C)(C)O)ccc6c45)c3C)c(=O)n2c1: 6.92
2) Cn1c(=O)n(-c2cccc(-c3ccc(C(N)=O)c4[nH]c5cc(C(C)(C)O)ccc5c34)c2Cl)c(=O)c2ccccc21: 6.82

A = Cc1c(-c2ccc(C(N)=O)c3[nH]c4cc(CN5CCCC5)ccc4c23)cccc1-n1c(=O)cc2c(Cl)cccn2c1=O
B = COCc1ccc2c(c1)[nH]c1c(C(N)=O)ccc(-c3cccc(-n4c(=O)cc5c(F)cccn5c4=O)c3C)c12
input: Which of the two items, A and B , has the greater recorded pIC50? Your answer should be the label of the entry you select.
output: A

I = Cc1c(-c2ccc(C(N)=O)c3[nH]c4cc(CO)ccc4c23)cccc1-n1c(=O)cc2c(F)cccn2c1=O
II = Cc1c(-c2ccc(C(N)=O)c3[nH]c4cc(C(C)(C)O)ccc4c23)cccc1-n1c(=O)ccn(-c2ccc(F)cc2)c1=O
input: Which record would sort first by descending pIC50, I or II ? In your reply, give the label of the chosen option.
output: I
(I: 7.06, II: 6.68)

a = Cc1c(-c2ccc(C(N)=O)c3[nH]c4cc(NC(=O)C(C)(C)C)ccc4c23)cccc1-n1c(=O)cc2c(Cl)cccn2c1=O
b = COCc1ccc2c(c1)[nH]c1c(C(N)=O)ccc(-c3cccc(-n4c(=O)cc5c(Cl)cccn5c4=O)c3C)c12
input: Between a and b , whose measured pIC50 reads higher? Lab note: record the label of whichever item you select.
output: b
